Assay Notes: Example 6 pharmacokinetics assay for PKPD study (plasma, tumor, liver)
Assay type: in vivo, BALB/c nude mice
Cond: mouse, tumor, po; 100 mg/kg, single dose; 12 h; read-out: Concentration in Tumor (mean ± SEM)
Value Kind: concentration at 12 h (ng/g)
One number for each entry, in ng/g.

Data point: CC(C)(C)c1nc(-c2cccc(NS(=O)(=O)c3c(F)cccc3F)c2F)c(-c2ccnc(N)n2)s1 [Dabrafenib, dabrafenib, reference compound] ; concentration at 12 h = 9.59

* * *

Assay Notes: Pharmacokinetics in female BALB/c nude mice bearing A375 xenografts, 1 day dosing (PK and PD study): plasma, tumor and brain concentrations, AUC
Type: in vivo
Cond: mouse, plasma, po, 1 mg/kg, 1 mg/kg p.o. TID × 1 day; post 1st dose; 0.25 h; read-out: Mean Concentration in Plasma ± SEM
Value Kind: concentration at 0.25 h (ng/mL)
Give bare numbers, in ng/mL.

Data point: CCN(C)S(=O)(=O)Nc1ccc(F)c(Oc2ccc3ncn(C4CC5(CCN(C6CC7(C6)CN(c6cc8c(cc6F)c(N6CCC(=O)NC6=O)nn8C)C7)CC5)C4)c(=O)c3c2)c1C#N (stereo not shown) [Compound 141] ; concentration at 0.25 h = 438

* * *

Assay Notes: Example 6 pharmacokinetics assay for efficacy study (plasma, liver)
Format: in vivo, BALB/c nude mice
Cond: mouse, plasma, po, 35 mg/kg, p.o., QD × 21 days, read-out: Concentration in Plasma (mean ± SEM)
Value Kind: concentration at 6 h (ng/mL)
Answers are plain numbers, in ng/mL.

Data point: COC(=O)N[C@@H](C)CNc1nccc(-c2cn(C(C)C)nc2-c2cc(Cl)cc(NS(C)(=O)=O)c2F)n1 [Encorafenib, encorafenib, reference compound] ; concentration at 6 h = 992

* * *

Assay Notes: Pharmacokinetics in female BALB/c nude mice bearing A375 xenografts, 1 day dosing (PK and PD study): plasma, tumor and brain concentrations, AUC
Assay type: in vivo
Cond: mouse, plasma, po, 2 mg/kg, 2 mg/kg p.o. TID × 1 day; post 3rd dose; 0.5 h; read-out: Mean Concentration in Plasma ± SEM
Value Kind: concentration at 0.5 h

Data point: CCN(C)S(=O)(=O)Nc1ccc(F)c(Oc2ccc3ncn([C@H]4COC5(CCN(C6CC7(C6)CN(c6cc8c(cc6F)c(N6CCC(=O)NC6=O)nn8C)C7)CC5)C4)c(=O)c3c2)c1C#N [Compound 26] ; concentration at 0.5 h = 2.63 µg/mL

* * *

Assay Notes: Pharmacokinetics after 21 days dosing in the efficacy study (plasma, tumor and brain concentrations; plasma AUC at steady state), Example 14
Assay type: in vivo, female BALB/c nude mice
Cond: mouse, plasma, po; 1 mg/kg p.o. TID x 21 days; 1 h; mean ± SEM
Value Kind: concentration at 1 h (ng/mL)
Give bare numbers, in ng/mL.

Data point: CCN(C)S(=O)(=O)Nc1ccc(F)c(Oc2ccc3ncn(C4CC5(CCN(C6CC7(C6)CN(c6cc8c(cc6F)c(N6CCC(=O)NC6=O)nn8C)C7)CC5)C4)c(=O)c3c2)c1C#N (stereo not shown) [Compound 141] ; concentration at 1 h = 1930

* * *

Assay Notes: Example 7 pharmacokinetics assay for PKPD study (plasma, tumor, liver)
Format: in vivo, BALB/c nude mice
Cond: mouse, tumor, po; 100 mg/kg, p.o., single dose; 24 h; read-out: Concentration in Tumor (mean ± SEM)
Value Kind: concentration at 24 h
Respond with the figure and its unit, in that order.

Data point: CC(C)(C)c1nc(-c2cccc(NS(=O)(=O)c3c(F)cccc3F)c2F)c(-c2ccnc(N)n2)s1 [Dabrafenib, dabrafenib, reference compound] ; concentration at 24 h = 5.53 ng/g
